- ASSAY NAME: qHTS of pediatric cancer cell lines to identify multiple opportunities for drug repurposing: Primary screen for Rh41 cells (AID 1347108); note: nearly all actives have a fitted effect of over 70% in size
- RUN PARAMETERS: Rh41 rhabdomyosarcoma viability, CellTiter-Glo luminescence, 48 h; series mostly up to 46 µM
Records with an inconclusive call do not appear. Activity calls are given as the source filed them. Calls come from the whole dose curve; as a rule, active = well fitted cell-killing curve with a large enough effect; inconclusive = small, poorly fitted or top-dose-only effect; inactive = no such curve, though single readings can be large or run the other way.
Return exactly one item of active, inactive

Consider the following illustrative entries.
CC1(C)CCC[C@@]2(C)[C@@H]1CC[C@@]1(C)OC(=O)C[C@H]21 : inactive
O=C(O)CCC1CCC(c2cc(F)ccc2F)(S(=O)(=O)c2ccc(Cl)cc2)CC1 (stereo not given) : active
Cc1cccc(C)c1OCC(C)N (stereo not given) : inactive
Cc1nc(N)sc1-c1ccnc(Nc2ccc(N3CCOCC3)cc2)n1 : active
NC(=O)NN=Cc1ccc([N+](=O)[O-])o1 : inactive
N#CC1(c2ccc(NC(=O)c3cccnc3NCc3ccncc3)cc2)CCCC1 : inactive
CO[C@@H](C(=O)N1Cc2[nH]nc(NC(=O)c3ccc(N4CCN(C)CC4)cc3)c2C1)c1ccccc1 : active
COc1cc2nc(-c3ccc(N4CCN(C)CC4)cc3)nc(NCCN3CCOCC3)c2cc1OC : active
COc1cccc([C@@H](C)NCCCc2ccccc2Cl)c1 : inactive

Continue with the molecule presented below.
### Prompt Outcome? "NC1=N[C@@]2(c3cc(NC(=O)c4ccc(F)cn4)ccc3F)COC[C@@H]2CS1"
### Response active
